The reported measurements were obtained from paper PMC6364417.

# Test system: 501Mel cells (parental)
# protocol-notes: Kinase inhibitor library screening, PrestoBlue cell viability, 1 or 10 μM, 72 h
# test-conditions: 501Mel Parental; 1μΜ; 72 h; in %
Below, each entry is listed alongside its reported cell viability, 501Mel Parental, 1μΜ.
Returns: the value as a bare number; no unit string appended.

{"compound": "COc1cc2ncnc(Nc3cccc(Cl)c3)c2cc1OC", "cell viability, 501Mel Parental, 1μΜ": 96.5}

For the next question, use this compound.
Recorded cell viability, 501Mel Parental, 1μΜ for `Cc1c(NC(=O)OC[C@@H]2COCCN2)cn2ncnc(Nc3ccc4c(cnn4Cc4cccc(F)c4)c3)c12` , please?
99.1
